Test system: 521955-158-R2-J5-PDC complex spheroids, viability;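 also: spheroids also contain HUVEC endothelial cells and mesenchymal stem cells as stroma; compound exposure lasted seven days before the viability read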
testDetails: Anticancer human tumor 521955-158-R2-J5-PDC patient-derived pancreatic carcinoma cell line growth inhibition [RAS]; active = viability on the fitted dose curve at most 10% of control; inactive = the rest
settings: second compound 0.3 µM; first compound 0.1 µM
From the text: RAS pathway inhibitors in Combinations in Complex Spheroids A high-throughput screen of multi-cell type tumor spheroids was designed to identify active combinations of RAS pathway inhibitors and targeted small molecules. Complex spheroids include a stromal component modeled by human endothelial cells (HUVEC) and fibroblasts modeled by human mesenchymal stem cells (MSCs). […] Compounds. […] If the clinical Cmax for an agent had not been determined, the highest concentration tested was 10 microM. […]
Outcome field: choose from t for active, f for inactive

## Task Hi, sorry to bother you, what did the test record for CC(=O)OC12COC1CC(O)C1(C)C(=O)C(O)C3=C(C)C(OC(=O)C(O)C(NC(=O)OC(C)(C)C)c4ccccc4)CC(O)(C(OC(=O)c4ccccc4)C21)C3(C)C (centres undefined) + CCn1c(-c2cccnc2C(C)OC)c2c3cc(ccc31)N1CCOC(CC(NC(=O)C(C(C)C)N(C)C(=O)C3(F)CCN(C(=O)C#CC(C)(C)N(C)C)CC3)C(=O)N3CCCC(N3)C(=O)OCC(C)(C)C2)C1 ?
## Result f

## Task Hi, sorry to bother you, what did the test record for CC(Nc1ccc2c(c1)OCCn1cc(N3C(=O)OCC3C(F)F)nc1-2)C(N)=O (centres undefined) + CCn1c(-c2cccnc2C(C)OC)c2c3cc(ccc31)N1CCOC(CC(NC(=O)C(C(C)C)N(C)C(=O)C3(F)CCN(C(=O)C#CC(C)(C)N(C)C)CC3)C(=O)N3CCCC(N3)C(=O)OCC(C)(C)C2)C1 ?
## Result f

## Task Hi, sorry to bother you, what did the test record for CCN1CCN(Cc2ccc(Nc3ncc(F)c(-c4cc(F)c5nc(C)n(C(C)C)c5c4)n3)nc2)CC1 + CCn1c(-c2cc(N3CCN(C)CC3)cnc2C(C)OC)c2c3cc(ccc31)-c1csc(n1)CC(NC(=O)C1CC1C)C(=O)N1CCCC(N1)C(=O)OCC(C)(C)C2 ?
## Result f

## Task Hi, sorry to bother you, what did the test record for CCC(CC)c1cc(NC2CCC(N)C2)n2nccc2n1 (centres undefined) + CCn1c(-c2cccnc2C(C)OC)c2c3cc(ccc31)N1CCOC(CC(NC(=O)C(C(C)C)N(C)C(=O)C3(F)CCN(C(=O)C#CC(C)(C)N(C)C)CC3)C(=O)N3CCCC(N3)C(=O)OCC(C)(C)C2)C1 ?
## Result f

## Task Hi, sorry to bother you, what did the test record for CCN1CCN(Cc2ccc(Nc3ncc(F)c(-c4cc(F)c5nc(C)n(C(C)C)c5c4)n3)nc2)CC1 + CCn1c(-c2cccnc2C(C)OC)c2c3cc(ccc31)N1CCOC(CC(NC(=O)C(C(C)C)N(C)C(=O)C3(F)CCN(C(=O)C#CC(C)(C)N(C)C)CC3)C(=O)N3CCCC(N3)C(=O)OCC(C)(C)C2)C1 ?
## Result f

## Task Hi, sorry to bother you, what did the test record for C[C@@H](NC(=O)c1ncnc(N)c1Cl)c1ncc(C(=O)Nc2cc(C(F)(F)F)c(Cl)cn2)s1 + CCn1c(-c2cc(N3CCN(C)CC3)cnc2C(C)OC)c2c3cc(ccc31)-c1csc(n1)CC(NC(=O)C1CC1C)C(=O)N1CCCC(N1)C(=O)OCC(C)(C)C2 ?
## Result f

## Task Hi, sorry to bother you, what did the test record for C=CC(=O)Nc1cc(Nc2nccc(-c3cn(C)c4ccccc34)n2)c(OC)cc1N(C)CCN(C)C + CCn1c(-c2cccnc2C(C)OC)c2c3cc(ccc31)N1CCOC(CC(NC(=O)C(C(C)C)N(C)C(=O)C3(F)CCN(C(=O)C#CC(C)(C)N(C)C)CC3)C(=O)N3CCCC(N3)C(=O)OCC(C)(C)C2)C1 ?
## Result f

## Task Hi, sorry to bother you, what did the test record for Nc1ccn(C2OC(CO)C(O)C2(F)F)c(=O)n1 (centres undefined) + CCn1c(-c2cccnc2C(C)OC)c2c3cc(ccc31)N1CCOC(CC(NC(=O)C(C(C)C)N(C)C(=O)C3(F)CCN(C(=O)C#CC(C)(C)N(C)C)CC3)C(=O)N3CCCC(N3)C(=O)OCC(C)(C)C2)C1 ?
## Result f

## Task Hi, sorry to bother you, what did the test record for C=CC(=O)N1CCN(c2nc(OCC3CCCN3C)nc3c(F)c(-c4nc(N)cc(C)c4C(F)(F)F)c(Cl)cc23)C(C)C1 (centres undefined) + CCn1c(-c2cccnc2C(C)OC)c2c3cc(ccc31)N1CCOC(CC(NC(=O)C(C(C)C)N(C)C(=O)C3(F)CCN(C(=O)C#CC(C)(C)N(C)C)CC3)C(=O)N3CCCC(N3)C(=O)OCC(C)(C)C2)C1 ?
## Result f

## Task Hi, sorry to bother you, what did the test record for NC1c2ccccc2OC12CCN(c1cnc3c(N4CCCc5ncccc54)n[nH]c3n1)CC2 (centres undefined) + CCn1c(-c2cccnc2C(C)OC)c2c3cc(ccc31)N1CCOC(CC(NC(=O)C(C(C)C)N(C)C(=O)C3(F)CCN(C(=O)C#CC(C)(C)N(C)C)CC3)C(=O)N3CCCC(N3)C(=O)OCC(C)(C)C2)C1 ?
## Result f

## Task Hi, sorry to bother you, what did the test record for Cc1nc(N2CCC3(CC2)COC(C)C3N)c(CO)nc1Sc1ccnc(N)c1Cl (centres undefined) + CCn1c(-c2cccnc2C(C)OC)c2c3cc(ccc31)N1CCOC(CC(NC(=O)C(C(C)C)N(C)C(=O)C3(F)CCN(C(=O)C#CC(C)(C)N(C)C)CC3)C(=O)N3CCCC(N3)C(=O)OCC(C)(C)C2)C1 ?
## Result f

## Task Hi, sorry to bother you, what did the test record for CC(C)NCC(C(=O)N1CCN(c2ncnc3c2C(C)CC3O)CC1)c1ccc(Cl)cc1 (centres undefined) + CCn1c(-c2cccnc2C(C)OC)c2c3cc(ccc31)N1CCOC(CC(NC(=O)C(C(C)C)N(C)C(=O)C3(F)CCN(C(=O)C#CC(C)(C)N(C)C)CC3)C(=O)N3CCCC(N3)C(=O)OCC(C)(C)C2)C1 ?
## Result f

## Task Hi, sorry to bother you, what did the test record for CC(C)NCC(C(=O)N1CCN(c2ncnc3c2C(C)CC3O)CC1)c1ccc(Cl)cc1 (centres undefined) + CCn1c(-c2cc(N3CCN(C)CC3)cnc2C(C)OC)c2c3cc(ccc31)-c1csc(n1)CC(NC(=O)C1CC1C)C(=O)N1CCCC(N1)C(=O)OCC(C)(C)C2 ?
## Result t

## Task Hi, sorry to bother you, what did the test record for O=C(c1ccc(F)c(F)c1Nc1ccc(I)cc1F)N1CC(O)([C@@H]2CCCCN2)C1 + CCn1c(-c2cc(N3CCN(C)CC3)cnc2C(C)OC)c2c3cc(ccc31)-c1csc(n1)CC(NC(=O)C1CC1C)C(=O)N1CCCC(N1)C(=O)OCC(C)(C)C2 ?
## Result t

Recorded values, source PubChem BioAssay AID2060900.
